biological target: human Bradykinin B1 receptor (Homo sapiens, UniProt P46663); construct: host or cells: CHO-K1; assay: Calcium flux Assay (FLIPR) with recombinant CHO-K1 cells expressing human Bradykinin B1 receptor, in presence (hB1 IC50) or absence (hB1 free IC50) of 0.1% BSA; assay type: cell-based; settings: in absence of 0.1% BSA, read-out: hB1 free IC50
Sequence (P46663 whole entry): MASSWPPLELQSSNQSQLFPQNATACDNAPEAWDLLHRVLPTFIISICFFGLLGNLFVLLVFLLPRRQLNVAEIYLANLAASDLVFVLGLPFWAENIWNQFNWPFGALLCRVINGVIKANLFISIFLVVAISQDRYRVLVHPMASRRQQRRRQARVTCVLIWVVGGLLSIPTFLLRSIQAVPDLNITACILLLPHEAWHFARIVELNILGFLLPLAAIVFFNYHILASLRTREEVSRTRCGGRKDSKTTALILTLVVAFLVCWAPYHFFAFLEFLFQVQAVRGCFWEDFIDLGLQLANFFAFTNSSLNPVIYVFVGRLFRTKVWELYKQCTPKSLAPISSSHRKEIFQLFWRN
readout_type: pIC50
The scale used: pIC50 is minus the common logarithm of the concentration in molar units.

INSERT INTO measurements (smiles, readout_type, recorded_result) VALUES
  ('O=C(Nc1ccc(-n2ccc(C(F)(F)F)n2)c(-c2nnn[nH]2)c1)C1(c2ccc(C(F)(F)F)cc2F)CC1', 'pIC50', 6.91);

Exam item: Given `O=C(Nc1ccc(-c2ccc(C(F)(F)F)nc2)c(-c2nnn[nH]2)c1)C1(c2ccc(Cl)cc2F)CC1` , state its recorded pIC50.
Marked response: 7.47

Exam item: // query: `CC(C)Oc1ccc(-c2ccc(NC(=O)C3(c4ccc(C(F)(F)F)cc4)CC3)cc2-c2nnn[nH]2)cn1`
Marked response: 8.20

Exam item: // query: `Cc1cncc(-c2ccc(NC(=O)C3(c4cccc(Cl)c4)CC3)cc2-c2nnn[nH]2)c1`
Marked response: 7.70
